meta.source: patent US6864219B2

- protocol: log P determination by HPLC on reversed-phase column (C 18), EEC Directive 79/831 V.A8
- Assay type: physicochemical
- condition-label: reversed-phase HPLC column (C 18), labelled a): acidic range; read-out: logP)
So I've got a bunch of compounds here, and I need their chromatographic logP values.
# respond with the number and nothing more

Endpoint output: chromatographic logP of `CCOC(=O)c1ccc(Cl)c(OCCBr)c1Cl` . Value?
3.98

And then `CCOC(=O)c1ccc(Cl)c(OC[C@@H]2CCC(=O)N2)c1Cl` , what is it?
2.14

And then `CCOC(=O)c1ccc(Cl)c(OCCn2nc(SC)n(C)c2=O)c1Cl` , what is it?
2.66
